test system: Fibroblast; assay: Multiplex assay against human fibroblast; assay type: toxicity, cell-based; conditions: 24 h, 1 µM, compound concentration 1 uM, replicate 2
Rule: Population Fragmented Nuclei (%) of 30% or more gives Met; anything lower gives Not met.

Sample answers from the record:
compound=COc1cc(C(=O)N(CCCc2ccccc2)Cc2ccc(CC(=O)O)cc2)cc(OC)c1C target_or_test_system=Fibroblast assigned_class=Met
compound="Cc1ccc(/C(=C\\CN2CCCC2)c2ccccn2)cc1 [TRIPROLIDINE]" target_or_test_system=Fibroblast assigned_class="Not met"
compound="COc1ccc2c(c1)C(C(=O)N(Cc1ccc(N(C)C)cc1)c1ccc(C(C)C)cc1)CCC2.Cl (configuration not stated)" target_or_test_system=Fibroblast assigned_class="Not met"
compound="C[C@@H]1C[C@H]2[C@@H]3CCC4=CC(=O)C=C[C@]4(C)[C@@]3(F)[C@@H](O)C[C@]2(C)[C@@]1(O)C(=O)CO [DEXAMETHASONE]" target_or_test_system=Fibroblast assigned_class="Not met"
compound=O=C1COc2nccc(-c3ccccc3F)c2CN1Cc1cc(C(F)(F)F)cc(C(F)(F)F)c1 target_or_test_system=Fibroblast assigned_class="Not met"
compound=CSCC[C@H](NC=O)C(=O)N[C@@H](CC(C)C)C(=O)N[C@@H](Cc1ccccc1)C(=O)O target_or_test_system=Fibroblast assigned_class=Met
compound="CC(C)(C)c1ccc(S(=O)(=O)Nc2ccc(Cl)cc2C(=O)c2cc[n+]([O-])cc2)cc1 [VERCIRNON]" target_or_test_system=Fibroblast assigned_class="Not met"
compound=CC[C@H]1OC(=O)[C@H](C)[C@@H](O[C@H]2C[C@@](C)(OC)[C@@H](O)[C@H](C)O2)[C@H](C)[C@@H](O[C@@H]2O[C@H](C)C[C@H](N(C)C)[C@H]2O)[C@@]2(C)CC(C)=C(O2)[C@H](C)[C@@H](O)[C@]1(C)O target_or_test_system=Fibroblast assigned_class="Not met"
compound="Cc1ccccc1C(=O)Nc1ccc(C(=O)N2CCCC(N(C)C)c3ccccc32)cc1.Cl (configuration not stated)" target_or_test_system=Fibroblast assigned_class="Not met"
compound="O=C(O)c1cc2ccccc2c(Cc2c(O)c(C(=O)O)cc3ccccc23)c1O [PAMOIC ACID]" target_or_test_system=Fibroblast assigned_class="Not met"

input: Form field: Population Fragmented Nuclei (%) at least 30%? Entry: Cc1ccc(F)cc1C(=O)Nc1ccc(C(=O)N2Cc3cccn3Cc3ccccc32)c(Cl)c1 [LIXIVAPTAN]
output: Met

input: Form field: Population Fragmented Nuclei (%) at least 30%? Entry: COc1cc(NC(=O)CCN2CCC(OC(=O)Nc3ccccc3-c3ccccc3)CC2)c(Cl)cc1CNC[C@H](O)c1ccc(O)c2[nH]c(=O)ccc12 [BATEFENTEROL]
output: Not met

input: Form field: Population Fragmented Nuclei (%) at least 30%? Entry: `COc1c(C)cc(NC(=O)c2nn(Cc3ccc(F)cc3)c3c2CN(C(=O)c2ccc[nH]2)C[C@]3(C)C(N)=O)cc1C`
output: Met

input: Form field: Population Fragmented Nuclei (%) at least 30%? Entry: CNC[C@H](O)c1ccc(O)c(O)c1 [EPINEPHRINE]
output: Met

input: Form field: Population Fragmented Nuclei (%) at least 30%? Entry: `CN(C)CCCc1cc(C(=O)Nc2ccc(-c3ccncc3)cc2)ccc1O.Cl.Cl`
output: Not met

input: Form field: Population Fragmented Nuclei (%) at least 30%? Entry: Cl.Clc1ccc2nsnc2c1NC1=NCCN1 [TIZANIDINE HYDROCHLORIDE]
output: Not met

input: Form field: Population Fragmented Nuclei (%) at least 30%? Entry: CSc1ccccc1N1CCN(CCCCCC(=O)NC2CCCc3ccccc32)CC1.Cl (configuration not stated)
output: Met
